Biological target: CDK6/Cyclin D1 (Homo sapiens)
Sequence (Q00534 whole entry): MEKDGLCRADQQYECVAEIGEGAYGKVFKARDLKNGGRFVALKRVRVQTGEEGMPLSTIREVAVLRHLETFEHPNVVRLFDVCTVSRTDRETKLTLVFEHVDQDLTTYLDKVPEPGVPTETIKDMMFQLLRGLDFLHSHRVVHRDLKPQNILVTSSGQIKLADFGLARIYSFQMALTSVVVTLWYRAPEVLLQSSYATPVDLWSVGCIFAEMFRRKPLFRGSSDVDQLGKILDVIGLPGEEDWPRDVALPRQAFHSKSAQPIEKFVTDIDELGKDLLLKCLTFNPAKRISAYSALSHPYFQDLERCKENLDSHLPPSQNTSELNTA
Sequence (P24385 whole entry partner): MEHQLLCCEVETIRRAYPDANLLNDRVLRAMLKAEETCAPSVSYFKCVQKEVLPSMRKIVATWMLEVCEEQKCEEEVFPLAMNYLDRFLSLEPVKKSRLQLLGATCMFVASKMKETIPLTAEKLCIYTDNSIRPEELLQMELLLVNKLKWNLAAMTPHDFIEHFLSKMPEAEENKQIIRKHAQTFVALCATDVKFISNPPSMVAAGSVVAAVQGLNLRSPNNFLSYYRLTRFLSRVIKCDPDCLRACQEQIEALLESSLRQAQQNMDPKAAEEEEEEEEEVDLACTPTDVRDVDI
Assay: NanoBRET live-cell target engagement, NanoLuc-CDK6/Cyclin D1 in HEK-293
Format: binding
Settings: independent experiment 1; read-out: CDK6/D1 IC50
Exercise: state measured IC50 for each of the molecules provided.

**Query** State recorded IC50 with CDK6/Cyclin D1 (Homo sapiens), entry CC(C)CC(=O)Nc1[nH]nc2c1CN(C(=O)C1CCN(C)CC1)C2(C)C , no comment.
**Result** 374 nM

**Query** State recorded IC50 with CDK6/Cyclin D1 (Homo sapiens), entry CN1C/C=C/CCOc2cccc(c2)-c2ccnc(n2)Nc2cccc(c2)C1 , no comment.
**Result** 290 nM

**Query** State recorded IC50 with CDK6/Cyclin D1 (Homo sapiens), entry COCCN1CCN(Cc2ccc(-c3n[nH]c4c3C(=O)c3c(NC(=O)NN5CCOCC5)cccc3-4)cc2)CC1 , no comment.
**Result** 13 nM

====

Target: CDK19/Cyclin C (Homo sapiens, UniProt Q9BWU1)
Sequence (Q9BWU1 whole entry): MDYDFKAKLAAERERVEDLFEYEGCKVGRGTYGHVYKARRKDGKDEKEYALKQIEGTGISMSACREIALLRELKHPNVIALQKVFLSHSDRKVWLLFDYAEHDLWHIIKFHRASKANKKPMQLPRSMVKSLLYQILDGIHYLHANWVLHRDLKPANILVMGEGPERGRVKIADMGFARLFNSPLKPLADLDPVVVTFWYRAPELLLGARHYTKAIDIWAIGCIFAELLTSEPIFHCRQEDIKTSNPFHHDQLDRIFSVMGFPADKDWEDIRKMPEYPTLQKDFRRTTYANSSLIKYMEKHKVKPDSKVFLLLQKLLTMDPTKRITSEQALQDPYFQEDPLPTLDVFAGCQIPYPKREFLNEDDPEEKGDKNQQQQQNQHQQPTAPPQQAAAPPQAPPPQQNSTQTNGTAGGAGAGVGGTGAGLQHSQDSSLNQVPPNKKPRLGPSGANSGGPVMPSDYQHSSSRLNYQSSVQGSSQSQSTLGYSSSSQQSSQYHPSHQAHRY
Sequence (P24863 whole entry partner): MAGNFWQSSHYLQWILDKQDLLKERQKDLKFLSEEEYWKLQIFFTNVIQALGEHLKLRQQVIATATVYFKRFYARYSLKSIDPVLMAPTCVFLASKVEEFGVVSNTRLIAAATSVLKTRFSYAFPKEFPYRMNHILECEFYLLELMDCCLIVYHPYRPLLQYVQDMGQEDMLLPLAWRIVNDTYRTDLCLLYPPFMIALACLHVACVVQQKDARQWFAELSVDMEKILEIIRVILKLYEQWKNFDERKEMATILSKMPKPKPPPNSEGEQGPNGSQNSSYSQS
Assay: NanoBRET live-cell target engagement, NanoLuc-CDK19/Cyclin C in HEK-293
Details: read-out: IC50 (nM) Average*; CDK19/Y; n=3 average ± SEM, n=2 average to 2 significant figures
quantity-name: IC50 (nM)
API: value field is a number in nM; no unit string.

**Query** State recorded IC50 with CDK19/Cyclin C (Homo sapiens, UniProt Q9BWU1), entry CNC1CCN(C(=O)c2ccc(Nc3ncc(F)c(-c4cnc(C)n4C(C)C)n3)cc2)C1 (stereo not shown) , no comment.
**Result** 240

====

Exercise: state measured IC50 for each of the compounds provided.
Target: CDK15/Cyclin Y (Homo sapiens)
Sequence (Q96Q40 whole entry): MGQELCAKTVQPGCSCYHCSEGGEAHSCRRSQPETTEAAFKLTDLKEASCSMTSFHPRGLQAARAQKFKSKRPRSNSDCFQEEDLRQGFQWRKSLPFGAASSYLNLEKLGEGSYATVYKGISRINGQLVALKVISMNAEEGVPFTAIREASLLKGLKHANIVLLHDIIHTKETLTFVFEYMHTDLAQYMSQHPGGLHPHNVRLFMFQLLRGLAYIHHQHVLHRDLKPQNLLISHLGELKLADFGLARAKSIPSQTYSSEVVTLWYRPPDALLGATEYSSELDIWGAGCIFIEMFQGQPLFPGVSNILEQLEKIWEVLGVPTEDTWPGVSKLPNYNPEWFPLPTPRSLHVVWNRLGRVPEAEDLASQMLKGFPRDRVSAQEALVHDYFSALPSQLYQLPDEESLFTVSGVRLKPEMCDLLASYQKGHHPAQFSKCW
Sequence (Q8ND76 whole entry partner): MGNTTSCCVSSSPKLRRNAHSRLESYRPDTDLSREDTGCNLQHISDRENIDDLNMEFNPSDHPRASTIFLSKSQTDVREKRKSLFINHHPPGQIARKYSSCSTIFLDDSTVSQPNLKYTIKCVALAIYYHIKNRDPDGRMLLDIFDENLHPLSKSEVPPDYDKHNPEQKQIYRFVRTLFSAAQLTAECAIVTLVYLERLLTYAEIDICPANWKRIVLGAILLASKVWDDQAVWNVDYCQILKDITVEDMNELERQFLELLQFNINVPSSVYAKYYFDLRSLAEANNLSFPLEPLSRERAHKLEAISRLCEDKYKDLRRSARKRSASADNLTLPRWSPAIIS
Assay: NanoBRET live-cell target engagement, NanoLuc-CDK15/Cyclin Y in HEK-293
Assay type: binding
Details: CDK15/Y; experiment 2; read-out: IC50
API: value field is a number in nM; no unit string.

**Query** State recorded IC50 with CDK15/Cyclin Y (Homo sapiens), entry CS(=O)(=O)N1CCC(NC(=O)c2[nH]ncc2NC(=O)c2c(Cl)cccc2Cl)CC1 , no comment.
**Result** 220

**Query** State recorded IC50 with CDK15/Cyclin Y (Homo sapiens), entry CNC(=O)c1nn(C)c2c1C(C)(C)Cc1cnc(Nc3ccc(N4CCN(C)CC4)cc3)nc1-2 , no comment.
**Result** 898

**Query** State recorded IC50 with CDK15/Cyclin Y (Homo sapiens), entry CC(C)c1cnn2c(NCc3ccccc3-n3cccn3)nc(OC3CCCNC3)nc12 (stereo not drawn) , no comment.
**Result** 260

**Query** State recorded IC50 with CDK15/Cyclin Y (Homo sapiens), entry CNc1nc(C)c(-c2nc(Nc3cccc(S(N)(=O)=O)c3)ncc2F)s1 , no comment.
**Result** 54

**Query** State recorded IC50 with CDK15/Cyclin Y (Homo sapiens), entry COc1ccc(F)cc1-c1cc(NC(=O)C2CCCNC2)ncc1Cl (stereo not drawn) , no comment.
**Result** 570

**Query** State recorded IC50 with CDK15/Cyclin Y (Homo sapiens), entry CC(C)c1c2cc(-c3ccnc(N[C@H]4CC[C@H](NC5CCOCC5)CC4)n3)ccc2nn1C , no comment.
**Result** 320

====

Exercise: state measured IC50 for each of the molecules provided.
Target: CDK7 (Homo sapiens)
Sequence (P50613 whole entry): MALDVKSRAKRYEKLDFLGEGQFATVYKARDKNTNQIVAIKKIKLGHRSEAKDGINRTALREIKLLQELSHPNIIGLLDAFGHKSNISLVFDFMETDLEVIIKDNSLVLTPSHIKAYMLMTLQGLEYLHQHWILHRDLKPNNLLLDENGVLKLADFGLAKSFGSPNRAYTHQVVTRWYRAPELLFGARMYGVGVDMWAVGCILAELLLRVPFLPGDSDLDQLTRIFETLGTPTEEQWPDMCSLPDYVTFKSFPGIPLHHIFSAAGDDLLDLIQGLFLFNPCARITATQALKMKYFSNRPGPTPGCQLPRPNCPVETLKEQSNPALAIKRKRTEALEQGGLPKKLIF
Assay: NanoBRET live-cell target engagement, NanoLuc-CDK7 in HEK-293
Type: binding
Conditions: independent experiment 1; read-out: CDK7 IC50
API: value field is a number in nM; no unit string.

**Query** State recorded IC50 with CDK7 (Homo sapiens), entry CN1C/C=C/CCOc2cccc(c2)-c2ccnc(n2)Nc2cccc(c2)C1 , no comment.
**Result** 11

**Query** State recorded IC50 with CDK7 (Homo sapiens), entry COCCN1CCN(Cc2ccc(-c3n[nH]c4c3C(=O)c3c(NC(=O)NN5CCOCC5)cccc3-4)cc2)CC1 , no comment.
**Result** 11

**Query** State recorded IC50 with CDK7 (Homo sapiens), entry CC(C)CC(=O)Nc1[nH]nc2c1CN(C(=O)C1CCN(C)CC1)C2(C)C , no comment.
**Result** 240
